Items are presented alongside their recorded synaptosome phagocytic index.
# Tested on: PBMC-derived induced microglia-like cells (piMGLC)
# measurement-description: synaptosome phagocytic index relative to DMSO control (fraction of DMSO); higher = more phagocytosis
# condition-set: concentration: 10 uM (2 uM for compounds listed in Table S2); pretreatment time: 24 h; assay time: 3 h
experimental-readout: synaptosome phagocytic index

>>> df
                                   compound  endpoint_result
0  Cn1ncc(-c2nn(C)c3ncnc(N4CCC4)c23)c1-c1ccc(C(F)(F)F)cc1            0.505
1  NC(=O)c1ccc(OCCCN2CC3CCCC3C2)cc1 (stereo not drawn)            0.933
2  COc1ncc(F)cc1CNc1ccc(Cc2c[nH]c3ncc(C)cc23)c(F)n1 [PLX5622_(hemifumarate)]            0.966
